Measured values drawn from ChEMBL document CHEMBL3580605 for this set.

test system: PC-3; experiment: Growth inhibition of human PC3 cells by sulforhodamine B assay; type: functional, cell-based
Quick reference: IC50 of the listed items.
Note: unit nM is implicit; provide only the numeric part.

Data request: Could you tell me which IC50 is on file for C=C1C(=O)O[C@H]2[C@H]1[C@H](OC(=O)[C@@]1(C)O[C@H]1C)[C@H](OC(C)=O)/C(C(=O)OC)=C\C=C/[C@]1(C)O[C@H]21 ?
Data returned: 1700

Data request: Queued: CC(=O)O[C@H]1C(=O)[C@@]2(C)[C@H]([C@H](OC(=O)c3ccccc3)[C@]3(O)C[C@H](OC(=O)[C@H](O)[C@@H](NC(=O)c4ccccc4)c4ccccc4)C(C)=C1C3(C)C)[C@]1(OC(C)=O)CO[C@@H]1C[C@@H]2O
Data returned: 40

Data request: Queued: C=C1C(=O)O[C@H]2[C@H]1[C@H](OC(=O)[C@@]1(C)O[C@H]1C)[C@H](OC(C)=O)/C(C(=O)OC)=C\[C@H]1O[C@H]1[C@]1(C)O[C@H]21
Data returned: 3100

Others:
Data request: Could you tell me which IC50 is on file for C=C1C(=O)O[C@H]2[C@H]1[C@H](OC(=O)[C@@]1(C)O[C@H]1C)[C@H](OC(C)=O)/C(C(=O)OC)=C\C[C@@H](O)[C@]1(C)O[C@H]21 ?
Data returned: 8700

Data request: Queued: C=C1C(=O)O[C@H]2[C@H]1[C@H](OC(=O)[C@@]1(C)O[C@H]1C)[C@@H](OC(C)=O)[C@@]1(C(=O)OC)C=CC=C(C)[C@H]21
Data returned: 670

* * *

Quick reference: pIC50 of the listed items.
system: A10; test: Growth inhibition of rat A10 cells by sulforhodamine B assay; type: cell-based
Just so you know, pIC50 here is -log10 of the concentration in molar units; reply with that number alone.

Record excerpt, results attached:
Data request: Observed pIC50 on A10 for C=C1C(=O)O[C@H]2[C@H]1[C@H](OC(=O)[C@@]1(C)O[C@H]1C)[C@H](OC(C)=O)/C(C(=O)OC)=C\C[C@@H](O)[C@]1(C)O[C@H]21 , please.
Data returned: 5.52

Data request: Queued: C=C1C(=O)O[C@H]2[C@H]1[C@H](OC(=O)[C@@]1(C)O[C@H]1C)[C@H](OC(C)=O)/C(C(=O)OC)=C\C=C/[C@]1(C)O[C@H]21
Data returned: 5.77

Others:
Data request: Observed pIC50 on A10 for C=C1C(=O)O[C@H]2[C@H]1[C@H](OC(=O)[C@@]1(C)O[C@H]1C)[C@H](OC(C)=O)/C(C(=O)OC)=C\[C@H]1O[C@H]1[C@]1(C)O[C@H]21 , please.
Data returned: 5.96
